Answer each item with its documented IC50.
test-target: central muscarinic M-1-receptors (Rattus norvegicus, UniProt P08482)
Sequence (P08482 whole entry): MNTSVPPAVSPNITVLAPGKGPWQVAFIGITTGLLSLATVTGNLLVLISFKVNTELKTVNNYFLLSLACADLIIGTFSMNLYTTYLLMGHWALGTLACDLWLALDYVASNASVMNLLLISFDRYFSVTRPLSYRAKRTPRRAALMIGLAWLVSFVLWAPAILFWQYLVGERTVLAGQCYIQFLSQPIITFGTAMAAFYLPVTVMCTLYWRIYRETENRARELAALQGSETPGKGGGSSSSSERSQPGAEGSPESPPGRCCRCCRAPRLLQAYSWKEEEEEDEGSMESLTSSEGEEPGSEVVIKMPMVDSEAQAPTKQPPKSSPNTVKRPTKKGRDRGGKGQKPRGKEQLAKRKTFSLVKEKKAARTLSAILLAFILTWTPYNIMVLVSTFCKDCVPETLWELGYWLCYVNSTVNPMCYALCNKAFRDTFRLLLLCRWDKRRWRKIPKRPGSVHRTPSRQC
method-summary: 3H-pirenzepine (Pz) displacement from rat brain homogenates
Assay type: binding
experimental-context: displacement of 1.0 nM 3H-pirenzepine, rat brain homogenates, 60 min, 25° C; read-out: Pz, IC50
Counter-ions that a name gives are not always drawn.
Lab note: write values as number then unit, every time.

Query string: Identify the reported IC50 for the following entry. CC(C)n1nnc(C2=CCCN(C)C2)n1 [Compound 16, fumarate]
Result string: 130 nM

Query string: Report IC50 for Cc1coc(C2=CCCN(C)C2)n1 [Compound 84, oxalate]
Result string: 58 nM

Query string: Tell me IC50 reported for CC1CC=C(c2nnn(C)n2)CN1C (centres unmarked) [Compound 31]
Result string: 140 nM

Query string: Give the measured IC50 for Cc1cc(C2=CCCNC2)no1 [Compound 55, hydrochloride]
Result string: 2500 nM

Query string: Please indicate IC50 recorded for CN1CCC=C(C2=NC(C)(C)CO2)C1 [Compound 87]
Result string: 400 nM

Query string: Identify IC50 associated with the molecule Cc1cnc(C2=CCCN(C)C2)o1 [Compound 75]
Result string: 370 nM

Query string: For Cc1cnc(C2=CCCN(C)C2)s1 [Compound 90] , write its IC50.
Result string: 420 nM

Query string: Return IC50 (reported value) for this molecule: CCn1nnc(C2=CCCNC2)n1 [Compound 19, hydrobromide]
Result string: 1500 nM

Query string: Please supply the value of reported IC50 for the item Cc1cnc(C2=CCCNC2)s1 [Compound 91, fumarate]
Result string: 1000 nM

Query string: Assign IC50 to the following record: CC1CC=C(c2nnn(C(C)C)n2)CN1C (centres unmarked) [Compound 34]
Result string: 350 nM

Query string: Provide measured IC50 value, entry: CC1=C(c2nnn(C)n2)CN(C)CC1 [Compound 38, oxalate]
Result string: 1200 nM

Query string: Dear colleague, please send me the reported IC50 for Cn1nnc(C2=CCCNC2)n1 [Compound 8, hydrobromide] when you can.
Result string: 2100 nM

Query string: In one line, give reported IC50 of the entry Cn1ncc(C2=CCCNC2)n1 [Compound 72, fumarate] .
Result string: 790 nM

Query string: Please supply the value of reported IC50 for the item C#CCn1nnc(C2=CCC(C)NC2)n1 (centres unmarked) [Compound 36, hydrochloride]
Result string: 250 nM

Query string: Give reported IC50 value for Cc1cc(C2=CCCNC2)on1 [Compound 54, maleate]
Result string: 4000 nM

Query string: Annotate the molecule C#CCn1nnc(C2=CC(C)CNC2)n1 (centres unmarked) [Compound 50, hydrochloride] with its measured IC50.
Result string: 68 nM

Query string: In one line, give reported IC50 of the entry CCn1nnc(C2=CCCN(C)C2)n1 [Compound 20, oxalate] .
Result string: 130 nM
